# Test system: HEK293T cells (HEK293T细胞)
# Assay type: cell-based
# measurementConditions: RBD mRNA-LNP, mRNA 1 μg, 24 h, cell supernatant
measurementLabel: RBD protein concentration (ng/mL)
Write the value in ng/mL as a bare number.

>  <compound>
CCCCCCCCC(CCCCCC)C(=O)OCCCCCCN(CCCCO)CCCCCCOC(=O)C(CCCCCC)CCCCCCCC (centres unmarked) [ALC-0315, ((4-羟基丁基)氮杂二基)双(己烷-6,1-二基)双(2-己基癸酸酯), reference compound]

>  <RBD protein concentration, ng/mL>
8.5

$$$$

-- ask Return reported RBD protein concentration; argument: CCCCCCCCCCCOC(=O)CCCCCN(CCO)CCCCCCCC(=O)OC(CCCCCCCC)CCCCCCCC [SM-102, reference compound]
-- reply 10.2

-- ask GET /values?readout=RBD protein concentration&item= CCCCCCCCCCCCOC(=O)CCCCCCN(CCCCCCC(=O)OC(CCCCCCCC)CCCCCCCC)CCN(CCO)CCO
-- reply 45.7

-- ask Using the record for CCCCCCCCC(CCCCCCCC)OC(=O)CCCCCN(CCCCCC(=O)OC(CCCCCCCC)CCCCCCCC)CCCN(CCO)CCO , report its RBD protein concentration.
-- reply 48.4

-- ask # input compound: CCCCCCCCCCCCOC(=O)CCCCCCN(CCCCCCC(=O)OCC(CCCCCC)CCCCCCCC)CCN(CCO)CCO (centres unmarked) ; wanted: its RBD protein concentration
-- reply 48.7

-- ask GET /values?readout=RBD protein concentration&item= CCCCCCCCC(CCCCCC)COC(=O)CCCCCN(CCCCCC(=O)OCC(CCCCCC)CCCCCCCC)CCN(CCO)CCO (centres unmarked)
-- reply 6.8

---

# System: HEK293T cells (HEK293T细胞)
# Type: cell-based
# measurementConditions: RBD mRNA-LNP, mRNA 1 μg, 24 h, cell supernatant
RBD protein concentration: recorded values
Field format: number, assumed ng/mL, no unit text.

Before answering, review these 7 worked examples.
>  <compound>
CCCCCCCCC(CCCCCC)COC(=O)CCCCN(CCCCC(=O)OCC(CCCCCC)CCCCCCCC)CCCN(CCO)CCO (centres unmarked)

>  <measuredValue>
5.4

$$$$
>  <compound>
CCCCCCCCC(CCCCCCCC)OC(=O)CCCCCCN(CCCCCCC(=O)OC(CCCCCCCC)CCCCCCCC)CCN(CCO)CCO

>  <measuredValue>
47.8

$$$$
>  <compound>
CCCCCCCCC(CCCCCC)COC(=O)CCCCCCN(CCCCCCC(=O)OCC(CCCCCC)CCCCCCCC)CCN(CCO)CCO (centres unmarked)

>  <measuredValue>
49.3

$$$$
>  <compound>
CCCCCCCCC(CCCCCC)COC(=O)CCCCCCN(CCCCCCC(=O)OCC(CCCCCC)CCCCCCCC)CCCN(CCO)CCO (centres unmarked)

>  <measuredValue>
4.5

$$$$
>  <compound>
CCCCCCCCCCCCOC(=O)CCCCCN(CCCCCC(=O)OC(CCCCCCCC)CCCCCCCC)CCCN(CCO)CCO

>  <measuredValue>
47.6

$$$$
>  <compound>
CCCCCCCCCCCCOC(=O)CCCCCCN(CCCCCCC(=O)OC(CCCCCCC)CCCCCCC)CCN(CCO)CCO

>  <measuredValue>
42.8

$$$$
>  <compound>
CCCCCCCC(CCCCCCC)OC(=O)CCCCCN(CCCCCC(=O)OC(CCCCCCC)CCCCCCC)CCCN(CCO)CCO

>  <measuredValue>
43.2

$$$$

Now for a further compound.
-- ask Fill in the blank: the reported RBD protein concentration of CCCCCCCCCCCCOC(=O)CCCCCN(CCCCCC(=O)OC(CCCCCCC)CCCCCCC)CCCN(CCO)CCO is ____.
-- reply 44.3

The origin of these recorded values is patent CN117003659A.
